Target: MT-1 receptor (Homo sapiens, UniProt P48039)
Construct: expressed in transfected cells; host or cells: CHP-K1 (Chinese hamster ovary) cells (so in the source)
Sequence (P48039 whole entry): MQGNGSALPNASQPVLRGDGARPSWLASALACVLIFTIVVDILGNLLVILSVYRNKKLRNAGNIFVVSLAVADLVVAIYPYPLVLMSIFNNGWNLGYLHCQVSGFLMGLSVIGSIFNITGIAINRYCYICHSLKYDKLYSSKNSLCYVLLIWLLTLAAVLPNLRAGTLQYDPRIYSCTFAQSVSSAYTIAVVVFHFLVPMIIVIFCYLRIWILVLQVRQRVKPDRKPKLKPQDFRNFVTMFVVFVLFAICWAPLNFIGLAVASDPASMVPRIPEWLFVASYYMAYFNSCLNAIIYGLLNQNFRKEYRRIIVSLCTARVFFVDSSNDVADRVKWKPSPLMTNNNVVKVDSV
Experiment: 125I-melatonin binding in membranes of CHP-K1 cells, MT-1
Details: 10 μM; 0.05 nM 125I-melatonin; read-out: MT-1 receptor binding % inhibition by 10 μM
inhibition at 10 µM below 80% gives -1; inhibition at 10 µM at or above it gives 1.

Please indicate if the recorded inhibition at 10 µM for COc1ccc2[nH]c(Br)c(CCNC(=O)c3ccc(=O)oc3)c2c1 meets or exceeds 80%.
-1

Quick check: does COc1ccc2[nH]cc(CCNC(=O)c3cc(=O)c(OC)co3)c2c1 have inhibition at 10 µM greater than or equal to 80%?
-1

Exam item: decide whether the reported inhibition at 10 µM for COc1ccc2[nH]cc(CCNC(=O)c3cccc(=O)o3)c2c1 is at least 80%.
-1

Determine whether measured inhibition at 10 µM meets or exceeds 80% for COc1ccc2[nH]cc(CCNC(=O)c3cc(=O)cco3)c2c1
1

I'd appreciate it if you could say whether COc1ccc2[nH]cc(CCNC(=O)c3ccc(=O)oc3)c2c1 has inhibition at 10 µM at least equal to 80%.
1

Entry COc1ccc2[nH]cc(CCOC(=O)c3cc(=O)c(O)co3)c2c1 : is its inhibition at 10 µM no less than 80%?
-1
